Hello, the source for this data is patent US4489091A, in case you need it.

- method notes: Acute toxicity
- experimental conditions: rat, in vivo, po
Parameter: LD50. Scope: all listed entries.
measured parameter: LD50

compound: CC(C)CCC(=O)COS(=O)(=O)c1ccccc1 [Compound 12]
result: > 2500 mg/kg

compound: CCCCCC(=O)COS(=O)(=O)c1ccc(O)cc1 [Compound 60]
result: > 3000 mg/kg

compound: CCCCC(=O)COS(=O)(=O)c1ccccc1C [Compound 30]
result: > 1500 mg/kg

compound: CCCCC(C)C(=O)COS(=O)(=O)c1ccc(C)cc1 (stereo not shown) [Compound 127]
result: > 3000 mg/kg

compound: CCCCC(C)C(=O)COS(=O)(=O)c1ccc(OCC)cc1 (stereo not shown) [Compound 139]
result: > 3000 mg/kg

compound: CCCC(=O)COS(=O)(=O)c1ccccc1C1OCCO1 [Compound 105]
result: > 3000 mg/kg

compound: CCCC(=O)COS(=O)(=O)c1c(CC)cc(CC)cc1CC [Compound 114]
result: > 3000 mg/kg

compound: CCC(C)C(=O)COS(=O)(=O)c1ccc(O)cc1 (stereo not shown) [Compound 63]
result: > 2000 mg/kg

compound: CCCC(=O)COS(=O)(=O)c1cc(C)c(C)cc1C [Compound 116]
result: > 2000 mg/kg

compound: CCOc1ccc(S(=O)(=O)OCC(=O)CCC(C)C)cc1 [Compound 138]
result: > 2000 mg/kg
